assay: Mouse pharmacokinetics studies; format: in vivo, CD-1 mice; conditions: mouse, in vivo, po
Recorded AUCp.o. for the following compounds
Your answer is read as ng·h/mL, so omit the unit and give the number.

Known AUCp.o. results, listed for orientation:
# smiles entry, display unit, AUCp.o.
measured = [
    ("CO[C@H]1/C=C/O[C@@]2(C)Oc3c(C)c(O)c4c(c3C2=O)C2=NC3(CCN(CC(C)C)CC3)NC2=C(NC(=O)/C(C)=C/C=C/[C@H](C)[C@H](O)[C@@H](C)[C@@H](O)[C@@H](C)[C@H](OC(=O)c2cscn2)[C@@H]1C)C4=O", "ng·h/mL", 25765),
    ("CO[C@H]1/C=C/O[C@@]2(C)Oc3c(C)c(O)c4c(c3C2=O)C2=NC3(CCN(CC(C)C)CC3)NC2=C(NC(=O)/C(C)=C/C=C/[C@H](C)[C@H](O)[C@@H](C)[C@@H](O)[C@@H](C)[C@H](OC(=O)Nc2ccncc2)[C@@H]1C)C4=O", "ng·h/mL", 14210),
    ("CO[C@H]1/C=C/O[C@@]2(C)Oc3c(C)c(O)c4c(c3C2=O)C2=NC3(CCN(CC(C)C)CC3)NC2=C(NC(=O)/C(C)=C/C=C/[C@H](C)[C@H](O)[C@@H](C)[C@@H](O)[C@@H](C)[C@H](OC(=O)Nc2ccccc2)[C@@H]1C)C4=O", "ng·h/mL", 25625),
    ("CO[C@H]1/C=C/O[C@@]2(C)Oc3c(C)c(O)c4c(c3C2=O)C2=NC3(CCN(CC(C)C)CC3)NC2=C(NC(=O)/C(C)=C/C=C/[C@H](C)[C@H](O)[C@@H](C)[C@@H](O)[C@@H](C)[C@H](OC(=O)Nc2cnccn2)[C@@H]1C)C4=O", "ng·h/mL", 55072),
    ("CO[C@H]1/C=C/O[C@@]2(C)Oc3c(C)c(O)c4c(c3C2=O)C2=NC3(CCN(CC(C)C)CC3)NC2=C(NC(=O)/C(C)=C/C=C/[C@H](C)[C@H](O)[C@@H](C)[C@@H](O)[C@@H](C)[C@H](OC(=O)NC2CCN(Cc3ccccc3)CC2)[C@@H]1C)C4=O", "ng·h/mL", 5658),
]

Proceed to the following item.
Task: Can you look up the measured AUCp.o. of CO[C@H]1/C=C/O[C@@]2(C)Oc3c(C)c(O)c4c(c3C2=O)C2=NC3(CCN(CC(C)C)CC3)NC2=C(NC(=O)/C(C)=C/C=C/[C@H](C)[C@H](O)[C@@H](C)[C@@H](O)[C@@H](C)[C@H](OC(=O)Nc2nncs2)[C@@H]1C)C4=O for me?
Output: 12103
